# assay system: panel of 442 kinases (Homo sapiens, UniProt P78362)
# Construct: purchased Ambit Biosciences (scanMAXX KINOMEscan)
# Sequence (P78362 whole entry): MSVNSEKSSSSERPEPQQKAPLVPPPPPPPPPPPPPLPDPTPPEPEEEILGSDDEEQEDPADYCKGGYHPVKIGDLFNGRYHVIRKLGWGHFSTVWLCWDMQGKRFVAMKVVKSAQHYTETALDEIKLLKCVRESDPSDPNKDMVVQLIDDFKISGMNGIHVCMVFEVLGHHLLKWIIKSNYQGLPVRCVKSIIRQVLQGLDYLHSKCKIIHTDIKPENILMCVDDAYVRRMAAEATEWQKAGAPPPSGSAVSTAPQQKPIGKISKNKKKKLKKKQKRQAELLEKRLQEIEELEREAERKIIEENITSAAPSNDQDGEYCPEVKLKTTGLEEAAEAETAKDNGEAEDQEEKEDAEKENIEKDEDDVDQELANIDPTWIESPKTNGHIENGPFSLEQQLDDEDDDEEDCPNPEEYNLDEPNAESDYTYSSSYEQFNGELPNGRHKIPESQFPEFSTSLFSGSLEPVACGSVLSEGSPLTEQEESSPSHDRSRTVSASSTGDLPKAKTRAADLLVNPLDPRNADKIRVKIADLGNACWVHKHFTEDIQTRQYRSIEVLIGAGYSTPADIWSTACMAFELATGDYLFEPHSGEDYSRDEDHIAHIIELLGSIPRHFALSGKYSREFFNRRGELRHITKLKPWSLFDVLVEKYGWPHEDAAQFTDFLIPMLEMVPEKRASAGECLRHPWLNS
# assay comment: biochemical
# Assay type: binding
# study conditions: kinase SRPK2; 1 µM; read-out: SRPK2 (% of control at 1 µM)
Would you mind telling me the reported remaining activity at 1 µM of each entry?
Express it in %; write the number only.

Fill blank: measured remaining activity at 1 µM of the compound Cn1c(=O)n(-c2ccc(C(C)(C)C#N)cc2)c2c3cc(-c4cnc5ccccc5c4)ccc3ncc21 [Dactolisib] is ____.
100

Moving on to the next compound: COc1ncc(-c2ccc3nccc(-c4ccnnc4)c3c2)cc1NS(=O)(=O)c1ccc(F)cc1F [Omipalisib]
100

Moving on to the next compound: FC(F)c1nc2ccccc2n1-c1nc(N2CCOCC2)nc(N2CCOCC2)n1 [ZSTK474]
100
